Exercise: state measured stoichiometry N for each of the proteins provided.
target: the molecule itself; assay: SEC; Superose 6 Increase 10/300 GL; 50 mM Tris-HCl (pH 8.0), 300 mM NaCl, 10 mM MgCl2; oligomeric state calculated from elution volumes of proteins of known size
Give bare numbers.

KpUGP D73A (enzyme, UDP-glucose pyrophosphorylase (galU gene product) of K. pneumoniae DSM 30104; mutant of Strep-KpUGP; tag as in m1; no cleavage described; dissociates progressively during storage on ice) MAALNSKVRKAVIPVAGLGTRMLPATKAIPKEMLPLVDKPLIQYVVNECIAAGITEIVLVTHSSKNSIENHFATSFELEAMLEKRVKRQLLEEVQSICPPHVTIMQVRQGLAKGLGHAVLCAHPVVGDEPVAVILPDVILDEYESDLSRDNLAEMISRFDETGASQIMVEPVEDVTAYGVVDCKGESLKPGESVPMVGVVEKPKADVAPSNLAVVGRYVLSADIWPLLAKTPPGAGDEIQLTDAIDMLIEKETVEAYHMKGKSHDCGNKLGYMQAFVEYGIRHKTLGDDFKAWLETAVAK    2.7

With those in mind, consider the next protein.
Request the reported stoichiometry N associated with KpUGP K27Q (enzyme, UDP-glucose pyrophosphorylase (galU gene product) of K. pneumoniae DSM 30104; mutant of Strep-KpUGP; tag as in m1; no cleavage described; eluted predominantly as dimers) MAALNSKVRKAVIPVAGLGTRMLPATQAIPKEMLPLVDKPLIQYVVNECIAAGITEIVLVTHSSKNSIENHFDTSFELEAMLEKRVKRQLLEEVQSICPPHVTIMQVRQGLAKGLGHAVLCAHPVVGDEPVAVILPDVILDEYESDLSRDNLAEMISRFDETGASQIMVEPVEDVTAYGVVDCKGESLKPGESVPMVGVVEKPKADVAPSNLAVVGRYVLSADIWPLLAKTPPGAGDEIQLTDAIDMLIEKETVEAYHMKGKSHDCGNKLGYMQAFVEYGIRHKTLGDDFKAWLETAVAK
2.2
